Recorded Ki, one value per entry.
Target: human melanocortin 4 receptor (human), P32245
Sequence (P32245 whole entry): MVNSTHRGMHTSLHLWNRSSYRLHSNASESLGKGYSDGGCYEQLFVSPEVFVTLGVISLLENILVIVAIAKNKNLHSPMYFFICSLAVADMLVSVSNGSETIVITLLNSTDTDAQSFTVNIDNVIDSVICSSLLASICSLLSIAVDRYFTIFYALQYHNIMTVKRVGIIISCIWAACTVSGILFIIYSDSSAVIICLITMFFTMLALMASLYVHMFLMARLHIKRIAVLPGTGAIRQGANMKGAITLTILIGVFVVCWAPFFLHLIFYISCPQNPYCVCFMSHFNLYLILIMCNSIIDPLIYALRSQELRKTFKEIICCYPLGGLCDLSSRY
Assay Summary: competition with 125-NDP-α-MSH, BHK human MC4R membranes
# value in nM; strip the unit string

// known answers, use as guide
CAHFRWCKKKR (modifications not checked) [Chem. 101] : 0.05
CAHFRWCAHFRW (modifications not checked) [Chem. 56] : 1.82

Hello, please tell me recorded Ki for this one: CAHFRWCAKKKR (modifications not checked) [Chem. 59]
0.01

Hello, please tell me recorded Ki for this one: CAHFRWCAEEEW (modifications not checked) [Chem. 44]
50.9

Hello, please tell me recorded Ki for this one: CAHFRWCAAAAW (modifications not checked) [Chem. 87]
0.17

Hello, please tell me recorded Ki for this one: CAHFRWCAAAAR (modifications not checked) [Chem. 90]
0.11

Hello, please tell me recorded Ki for this one: CAHFRWCAHFRW (modifications not checked) [Chem. 8]
0.08

Hello, please tell me recorded Ki for this one: CAHFRWCPPERW (modifications not checked) [Chem. 112]
1.21
